system: WI-38 cells; conditions: read-out: Est. ED50; dose response 0.6-20 μM; H2O2-resistance
metric: pEC50
Numbers only, as −log10 of the molar value.

Take a look at these entries with their results.
[[record]]
compound = "COC(=O)CCc1sc2c(c1[N+](=O)[O-])NC(=O)CCC2"
value_measured = 4.89

[[record]]
compound = "CCCC(=O)Nc1ccc(-c2cn3cccc(C)c3n2)cc1"
value_measured = 6.00

[[record]]
compound = "CC(C)(C)c1ccc(OCC(=O)Nc2ccc3c4c(cccc24)C(=O)NC3=O)cc1"
value_measured = 4.70

[[record]]
compound = "Cc1ccc(C(=O)Nc2ccc3ccc4cccnc4c3n2)cc1"
value_measured = 5.30

[[record]]
compound = "O=C(c1ccc([N+](=O)[O-])o1)N1CCc2ccccc21"
value_measured = 5.00

[[record]]
compound = "CC(COc1ccc2c(c1)OCO2)NC(=O)Cc1nnc(O)c2ccccc12 (stereo not shown)"
value_measured = 5.42


Give measured pEC50 for every item shown.
1. O=C(NCc1cccnc1)/C(=C/c1ccc(-c2ccc(Cl)cc2)o1)S(=O)(=O)c1ccccc1
2. CNC(=O)/C(C#N)=C/c1c(Oc2ccc(C(C)(C)C)cc2)nc2ccccn2c1=O

Out:
1: 5.59; 2: 4.73
